assay: Luminescence activity assay of purified Gaussia luciferase mutants on fluoro-coelenterazine; type: biochemical; parameters: key: ratio of mutant luminescence intensity to wild-type Gaussia luciferase; conditions: Substrate f-CTZ (Table 16)
Value Type: Activity of mutant relative to wild-type Gaussia luciferase without the signal peptide
// response body must contain only the number

Solved cases below.
F26L N27H V29C V31I S33V A36Q T37S L40G: Gaussia luciferase mutant (protein, SIGNAL (1)..(17), Gaussia luciferase mutant) MGVKVLFALICIAVAEAKPTENNEDLHICAIAVNFQSTDGDADRGKLPGKKLPLEVLKEMEANARKAGCTRGCLICLSHIKCTPKMKKFIPGRCHTYEGDKESAQGGIGEAIVDIPEIPGFKDLEPMEQFIAQVDLCVDCTTGCLKGLANVQCSDLLKKWLPQRCATFASKIQGQVDKIKGAGGD = 0.095
K66R P84A E102K A104G E110A L124M V138E: Gaussia luciferase mutant (protein, SIGNAL (1)..(17), Gaussia luciferase mutant) MGVKVLFALICIAVAEAKPTENNEDFNIVAVASNFATTDLDADRGKLPGKKLPLEVLKEMEANARRAGCTRGCLICLSHIKCTAKMKKFIPGRCHTYEGDKKSGQGGIGAAIVDIPEIPGFKDMEPMEQFIAQVDLCEDCTTGCLKGLANVQCSDLLKKWLPQRCATFASKIQGQVDKIKGAGGD = 10.315
F26G N27Y V29C A30V V31L S33G A36R T37A L40A: Gaussia luciferase mutant (protein, SIGNAL (1)..(17), Gaussia luciferase mutant) MGVKVLFALICIAVAEAKPTENNEDGYICVLAGNFRATDADADRGKLPGKKLPLEVLKEMEANARKAGCTRGCLICLSHIKCTPKMKKFIPGRCHTYEGDKESAQGGIGEAIVDIPEIPGFKDLEPMEQFIAQVDLCVDCTTGCLKGLANVQCSDLLKKWLPQRCATFASKIQGQVDKIKGAGGD = 0.104
F26T N27D V29P A30G V31I A32G S33I A36I T37L L40I: Gaussia luciferase mutant (protein, SIGNAL (1)..(17), Gaussia luciferase mutant) MGVKVLFALICIAVAEAKPTENNEDTDIPGIGINFILTDIDADRGKLPGKKLPLEVLKEMEANARKAGCTRGCLICLSHIKCTPKMKKFIPGRCHTYEGDKESAQGGIGEAIVDIPEIPGFKDLEPMEQFIAQVDLCVDCTTGCLKGLANVQCSDLLKKWLPQRCATFASKIQGQVDKIKGAGGD = 0.210
H79K P84L S103T A104G E110A: Gaussia luciferase mutant (protein, SIGNAL (1)..(17), Gaussia luciferase mutant) MGVKVLFALICIAVAEAKPTENNEDFNIVAVASNFATTDLDADRGKLPGKKLPLEVLKEMEANARKAGCTRGCLICLSKIKCTLKMKKFIPGRCHTYEGDKETGQGGIGAAIVDIPEIPGFKDLEPMEQFIAQVDLCVDCTTGCLKGLANVQCSDLLKKWLPQRCATFASKIQGQVDKIKGAGGD = 13.108

Quick one: Activity of mutant relative to wild-type Gaussia luciferase without the signal peptide of Q152H S170D Q175E A182Y: Gaussia luciferase mutant (protein, SIGNAL (1)..(17), Gaussia luciferase mutant) MGVKVLFALICIAVAEAKPTENNEDFNIVAVASNFATTDLDADRGKLPGKKLPLEVLKEMEANARKAGCTRGCLICLSHIKCTPKMKKFIPGRCHTYEGDKESAQGGIGEAIVDIPEIPGFKDLEPMEQFIAQVDLCVDCTTGCLKGLANVHCSDLLKKWLPQRCATFADKIQGEVDKIKGYGGD ?
0.583

Which Activity of mutant relative to wild-type Gaussia luciferase without the signal peptide reading was recorded for the molecule Q152H Q163D S170N G174S Q175E D177S A182Y: Gaussia luciferase mutant (protein, SIGNAL (1)..(17), Gaussia luciferase mutant) MGVKVLFALICIAVAEAKPTENNEDFNIVAVASNFATTDLDADRGKLPGKKLPLEVLKEMEANARKAGCTRGCLICLSHIKCTPKMKKFIPGRCHTYEGDKESAQGGIGEAIVDIPEIPGFKDLEPMEQFIAQVDLCVDCTTGCLKGLANVHCSDLLKKWLPDRCATFANKIQSEVSKIKGYGGD ?
0.404

Consider the molecule shown here: Q152H Q163D T167S S170D G174K Q175E K178S A182Y G183N: Gaussia luciferase mutant (protein, SIGNAL (1)..(17), Gaussia luciferase mutant) MGVKVLFALICIAVAEAKPTENNEDFNIVAVASNFATTDLDADRGKLPGKKLPLEVLKEMEANARKAGCTRGCLICLSHIKCTPKMKKFIPGRCHTYEGDKESAQGGIGEAIVDIPEIPGFKDLEPMEQFIAQVDLCVDCTTGCLKGLANVHCSDLLKKWLPDRCASFADKIQKEVDSIKGYNGD What is its recorded Activity of mutant relative to wild-type Gaussia luciferase without the signal peptide?
0.509

GET /values?readout=Activity of mutant relative to wild-type Gaussia luciferase without the signal peptide&item= K66N E102A S103T A104G E110G D123N L124M V138D K180: Gaussia luciferase mutant (protein) MGVKVLFALICIAVAEAKPTENNEDFNIVAVASNFATTDLDADRGKLPGKKLPLEVLKEMEANARNAGCTRGCLICLSHIKCTPKMKKFIPGRCHTYEGDKATGQGGIGGAIVDIPEIPGFKNMEPMEQFIAQVDLCDDCTTGCLKGLANVQCSDLLKKWLPQRCATFASKIQGQVDKIKGAGGD
6.874

meta.source: patent US20250066745A1
